B1: TPR 5TU (parent)
chain: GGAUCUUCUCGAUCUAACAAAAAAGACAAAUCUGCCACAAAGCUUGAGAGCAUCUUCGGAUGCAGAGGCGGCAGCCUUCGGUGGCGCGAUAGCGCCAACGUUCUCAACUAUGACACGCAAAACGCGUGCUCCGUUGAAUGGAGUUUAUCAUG

Variants of: B1
Assay: polymerase ribozyme fitness, log enrichment relative to wild type (log ratio); higher = more active; in vitro selection for triplet polymerase activity
Fewer inactive variants are shown than the library holds.
Answer each item with its documented polymerase ribozyme fitness (log ratio).
One number for each entry.

sequenceVariant | polymerase ribozyme fitness (log ratio)
U13G G86U | -3.56

Can you give me polymerase ribozyme fitness (log ratio) for all of these, one by one?
1. C99U G126U
2. A52U G92C

Out:
1. -0.0913
2. -2.01

// for each variant in input: emit polymerase ribozyme fitness (log ratio)
1. A22C U101G
2. A66G C85U

Out:
[0.0923, -3.45]

In: Retrieve polymerase ribozyme fitness (log ratio) measured for G94C and print it.
Out: -0.474
